system: T1, human MSLN-FL-his protein (human, UniProt Q13421 296-580)
T1 construct: Made in HEK293E cells, purified on nickel column; also called hMSLN-FL-his; human MSLN full-length protein; not shown: His tag
T1 sequence (Q13421 other isoform, or with tags, fused parts or gaps): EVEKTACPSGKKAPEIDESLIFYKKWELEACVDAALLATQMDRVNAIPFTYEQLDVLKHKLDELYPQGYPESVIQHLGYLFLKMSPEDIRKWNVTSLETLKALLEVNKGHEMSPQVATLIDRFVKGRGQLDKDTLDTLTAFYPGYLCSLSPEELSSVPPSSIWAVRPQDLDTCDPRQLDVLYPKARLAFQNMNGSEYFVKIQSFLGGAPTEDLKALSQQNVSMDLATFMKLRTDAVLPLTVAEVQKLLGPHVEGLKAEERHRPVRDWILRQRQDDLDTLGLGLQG
assayRemarks: ELISA, coated antigen, no antibody (blank)
quantityKind: OD450
Give the value as a plain number.

In the examples that follow, each entry is paired with its recorded OD450.
binder	quantityKind	observedResult
S009-F7.44.20 chimeric antibody (antibody, human IgG1, kappa, V domains shown, Human-murine chimeric antibody, human IgG1/kappa constant regions) VH: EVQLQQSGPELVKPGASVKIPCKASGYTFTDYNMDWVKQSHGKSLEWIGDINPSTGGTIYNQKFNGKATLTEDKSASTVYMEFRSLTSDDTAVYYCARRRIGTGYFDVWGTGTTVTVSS VL: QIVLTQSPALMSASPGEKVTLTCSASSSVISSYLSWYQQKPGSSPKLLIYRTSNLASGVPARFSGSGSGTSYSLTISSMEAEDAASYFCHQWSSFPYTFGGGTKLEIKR	OD450	0.06
S009-F7.66.12 chimeric antibody (antibody, human IgG1, kappa, V domains shown, Human-murine chimeric antibody, human IgG1/kappa constant regions) VH: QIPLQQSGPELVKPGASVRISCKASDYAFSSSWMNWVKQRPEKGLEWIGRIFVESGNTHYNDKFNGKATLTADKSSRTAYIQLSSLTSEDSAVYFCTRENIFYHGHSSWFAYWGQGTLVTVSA VL: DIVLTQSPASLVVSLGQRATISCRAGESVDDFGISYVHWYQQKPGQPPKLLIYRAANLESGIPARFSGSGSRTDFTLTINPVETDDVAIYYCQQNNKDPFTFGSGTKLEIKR	OD450	0.07

Q: For the binder S009-F7.2.3 chimeric antibody (antibody, human IgG1, kappa, V domains shown, Human-murine chimeric antibody, human IgG1/kappa constant regions) VH: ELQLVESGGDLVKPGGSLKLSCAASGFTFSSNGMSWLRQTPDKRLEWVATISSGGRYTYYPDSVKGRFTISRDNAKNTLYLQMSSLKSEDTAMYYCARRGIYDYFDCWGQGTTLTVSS VL: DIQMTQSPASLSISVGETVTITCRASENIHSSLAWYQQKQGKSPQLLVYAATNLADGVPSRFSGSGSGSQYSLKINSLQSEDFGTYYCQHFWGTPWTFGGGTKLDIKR , what OD450 is on record?
Ans: 0.06
